- system_tested: Calpain-1 catalytic subunit (Sus scrofa)
- assay: Inhibition of porcine erythrocyte mu calpain
result_type: Ki (µM)

# count of solved cases: 10
>>> test_value("O=CC(Cc1ccccc1)NC(=O)[C@H]1CCCN1S(=O)(=O)c1cccc([N+](=O)[O-])c1 (mixture of isomers)")
0.256
>>> test_value("Cc1ccc(S(=O)(=O)N2CCC[C@@H]2C(=O)NC(C=O)Cc2ccccc2)cc1 (some centres undefined)")
0.081
>>> test_value("COc1ccc(S(=O)(=O)N2CCC[C@@H]2C(=O)NC(C=O)Cc2ccccc2)cc1 (mixture of isomers)")
0.037
>>> test_value("O=CC(Cc1ccccc1)NC(=O)[C@H]1CCCN1S(=O)(=O)c1ccc(I)cc1 (mixture of isomers)")
0.033
>>> test_value("Cc1ccc(S(=O)(=O)N2CSC[C@@H]2C(=O)NC(C=O)Cc2ccccc2)cc1 (some centres undefined)")
0.07
>>> test_value("O=CC(Cc1ccccc1)NC(=O)[C@H]1CCCN1S(=O)(=O)c1ccc(F)cc1 (mixture of isomers)")
0.386
>>> test_value("O=CC(Cc1ccccc1)NC(=O)[C@H]1CCCN1S(=O)(=O)c1ccccc1 (mixture of isomers)")
0.196
>>> test_value("CC(C)S(=O)(=O)N1CCC[C@@H]1C(=O)NC(C=O)Cc1ccccc1 (mixture of isomers)")
0.836
>>> test_value("O=CC(Cc1ccccc1)NC(=O)[C@H]1CSCN1S(=O)(=O)c1ccc(Br)cc1 (mixture of isomers)")
0.074
>>> test_value("O=CC(Cc1ccccc1)NC(=O)[C@H]1CCCN1S(=O)(=O)c1ccc(Br)cc1 (mixture of isomers)")
0.128

[I] O=CC(Cc1ccccc1)NC(=O)[C@H]1CCCN1S(=O)(=O)c1ccc([N+](=O)[O-])cc1 (some centres undefined)
[II] O=CC(Cc1ccccc1)NC(=O)[C@H]1CSCN1S(=O)(=O)c1ccc(Cl)cc1 (mixture of isomers)
[III] O=C(NCCc1ccccc1)C(=O)C(Cc1ccccc1)NC(=O)[C@H]1CCCN1S(=O)(=O)c1ccc([N+](=O)[O-])cc1 (mixture of isomers)
Descending sort on Ki required. Answer format: the labels, in the requested order.
III, II, I
(III: 0.28 µM, II: 0.09 µM, I: 0.02 µM)

* * *

- assay: Selectivity ratio, Ki for human cathepsin B/Ki for porcine mu calpain
result_type: Selectivity ratio

[1] O=CC(Cc1ccccc1)NC(=O)[C@H]1CCCN1S(=O)(=O)c1ccccc1 (mixture of isomers)
[2] COc1ccc(S(=O)(=O)N2CCC[C@@H]2C(=O)NC(Cc2ccccc2)C(=O)C(=O)NCCc2ccccc2)cc1 (mixture of isomers)
[3] Cc1ccc(S(=O)(=O)N2CCC[C@@H]2C(=O)NC(C=O)Cc2ccccc2)cc1 (some centres undefined)
[4] O=CC(Cc1ccccc1)NC(=O)[C@H]1CSCN1S(=O)(=O)c1ccc(F)cc1 (mixture of isomers)
Arrange the 4 entries by Selectivity ratio so the values rise. In your reply, arrange the labels in the requested order.
4, 2, 1, 3
(4: 3.09, 2: 5.7, 1: 13, 3: 151)

* * *

- Test system: HeLa
- assay: Antiproliferative activity against human HeLa cell line by MTT assay
- Type: functional
result_type: GI50 (µM)

Below are worked cases with known answers.
>>> test_value("Cc1ccc(S(=O)(=O)N2CCC[C@@H]2C(=O)NC(Cc2ccccc2)C(=O)C(=O)NCCc2ccccc2)cc1 (mixture of isomers)")
22.9
>>> test_value("O=CC(Cc1ccccc1)NC(=O)[C@H]1CSCN1S(=O)(=O)c1ccc(I)cc1 (mixture of isomers)")
5.42
>>> test_value("COc1ccc(S(=O)(=O)N2CCC[C@@H]2C(=O)NC(C=O)Cc2ccccc2)cc1 (mixture of isomers)")
38.5
>>> test_value("O=CC(Cc1ccccc1)NC(=O)[C@H]1CCCN1S(=O)(=O)c1ccc([N+](=O)[O-])cc1 (stereo not given in full)")
40.4
>>> test_value("COc1ccc(S(=O)(=O)N2CCC[C@@H]2C(=O)NC(Cc2ccccc2)C(=O)C(=O)NCCc2ccccc2)cc1 (mixture of isomers)")
31.4

[P] O=CC(Cc1ccccc1)NC(=O)[C@H]1CSCN1S(=O)(=O)c1ccc(F)cc1 (mixture of isomers)
[Q] Cc1ccc(S(=O)(=O)N2CCC[C@@H]2C(=O)NC(C=O)Cc2ccccc2)cc1 (stereo not given in full)
[R] O=C(NCCc1ccccc1)C(=O)C(Cc1ccccc1)NC(=O)[C@H]1CCCN1S(=O)(=O)c1ccc([N+](=O)[O-])cc1 (mixture of isomers)
[S] Cc1ccc(S(=O)(=O)N2CSC[C@@H]2C(=O)NC(C=O)Cc2ccccc2)cc1 (stereo not given in full)
List the 4 entries from lowest GI50 to highest GI50 value. Output spec: labels arranged per the requested ranking.
S, P, R, Q
(S: 4.37 µM, P: 7.12 µM, R: 27.6 µM, Q: 48.9 µM)

* * *

- system_tested: Calpain-1 catalytic subunit (Sus scrofa, UniProt P35750)
- Sequence (P35750 whole entry): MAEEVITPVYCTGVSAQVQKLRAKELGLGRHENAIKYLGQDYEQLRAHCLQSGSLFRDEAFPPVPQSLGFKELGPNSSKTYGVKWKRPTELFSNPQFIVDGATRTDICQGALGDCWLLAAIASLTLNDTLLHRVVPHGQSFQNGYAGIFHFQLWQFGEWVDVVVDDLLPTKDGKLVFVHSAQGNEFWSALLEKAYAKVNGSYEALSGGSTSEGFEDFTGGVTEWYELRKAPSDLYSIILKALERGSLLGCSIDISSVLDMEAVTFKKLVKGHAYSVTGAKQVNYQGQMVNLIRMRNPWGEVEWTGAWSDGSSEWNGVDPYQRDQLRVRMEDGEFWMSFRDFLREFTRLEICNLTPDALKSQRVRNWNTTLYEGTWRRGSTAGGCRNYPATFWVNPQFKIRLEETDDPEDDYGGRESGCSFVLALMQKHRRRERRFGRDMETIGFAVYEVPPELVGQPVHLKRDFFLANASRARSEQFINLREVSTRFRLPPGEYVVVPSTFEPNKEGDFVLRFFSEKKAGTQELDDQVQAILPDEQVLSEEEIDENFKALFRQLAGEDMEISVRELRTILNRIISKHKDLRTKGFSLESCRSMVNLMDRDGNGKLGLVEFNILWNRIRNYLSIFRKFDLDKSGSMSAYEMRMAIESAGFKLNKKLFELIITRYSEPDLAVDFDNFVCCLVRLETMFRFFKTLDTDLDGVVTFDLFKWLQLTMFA
- assay: Inhibition of porcine erythrocyte mu calpain
result_type: Ki (nM)

// known answers, use as guide
>>> test_value("O=CC(Cc1ccccc1)NC(=O)[C@H]1CSCN1S(=O)(=O)c1ccc(F)cc1 (mixture of isomers)")
110
>>> test_value("COc1ccc(S(=O)(=O)N2CCC[C@@H]2C(=O)NC(Cc2ccccc2)C(=O)C(=O)NCCc2ccccc2)cc1 (mixture of isomers)")
450

[P] Cc1ccc(S(=O)(=O)N2CCC[C@@H]2C(=O)NC(Cc2ccccc2)C(=O)C(=O)NCCc2ccccc2)cc1 (mixture of isomers)
[Q] CCCCS(=O)(=O)N1CCC[C@@H]1C(=O)NC(C=O)Cc1ccccc1 (mixture of isomers)
For the pair P and Q , which entry has the numerically smaller recorded Ki? Record your answer as the label of the chosen record.
Q

[I] O=CC(Cc1ccccc1)NC(=O)[C@H]1CCCN1S(=O)(=O)c1ccccc1[N+](=O)[O-] (mixture of isomers)
[II] O=CC(Cc1ccccc1)NC(=O)[C@H]1CSCN1S(=O)(=O)c1ccc(I)cc1 (mixture of isomers)
[III] O=CC(Cc1ccccc1)NC(=O)[C@H]1CCCN1S(=O)(=O)c1cccc2ccccc12 (mixture of isomers)
// ascending sort on recorded Ki List the labels according to the requested ordering.
II, III, I
(II: 42 nM, III: 191 nM, I: 424 nM)

* * *

- assay: Selectivity ratio, Ki for human cathepsin B/Ki for porcine mu calpain
result_type: Selectivity ratio

Below: 8 compounds and their reported Selectivity ratio.
>>> test_value("O=CC(Cc1ccccc1)NC(=O)[C@H]1CCCN1S(=O)(=O)c1ccc(Cl)cc1 (mixture of isomers)")
38.2
>>> test_value("O=CC(Cc1ccccc1)NC(=O)[C@H]1CCCN1S(=O)(=O)c1ccc(F)cc1 (mixture of isomers)")
18.1
>>> test_value("O=CC(Cc1ccccc1)NC(=O)[C@H]1CCCN1S(=O)(=O)c1ccc(Br)cc1 (mixture of isomers)")
34.5
>>> test_value("O=CC(Cc1ccccc1)NC(=O)[C@H]1CSCN1S(=O)(=O)c1ccc(I)cc1 (mixture of isomers)")
2.61
>>> test_value("O=CC(Cc1ccccc1)NC(=O)[C@H]1CCCN1S(=O)(=O)c1ccc([N+](=O)[O-])cc1 (some centres not stated)")
188
>>> test_value("Cc1ccc(S(=O)(=O)N2CSC[C@@H]2C(=O)NC(C=O)Cc2ccccc2)cc1 (some centres not stated)")
1.7
>>> test_value("CCCCS(=O)(=O)N1CCC[C@@H]1C(=O)NC(C=O)Cc1ccccc1 (mixture of isomers)")
4.72
>>> test_value("O=CC(Cc1ccccc1)NC(=O)[C@H]1CCCN1S(=O)(=O)c1ccccc1[N+](=O)[O-] (mixture of isomers)")
10.9

[a] O=CC(Cc1ccccc1)NC(=O)[C@H]1CSCN1S(=O)(=O)c1ccc(Br)cc1 (mixture of isomers)
[b] O=C(NCCc1ccccc1)C(=O)C(Cc1ccccc1)NC(=O)[C@H]1CCCN1S(=O)(=O)c1ccc([N+](=O)[O-])cc1 (mixture of isomers)
Given a and given b , which shows the smaller recorded Selectivity ratio? Kindly give the label for the entry you pick.
a
(a: 1.21, b: 18.1)

[a] O=CC(Cc1ccccc1)NC(=O)[C@H]1CCCN1S(=O)(=O)c1cccc2ccccc12 (mixture of isomers)
[b] Cc1ccc(S(=O)(=O)N2CCC[C@@H]2C(=O)NC(Cc2ccccc2)C(=O)C(=O)NCCc2ccccc2)cc1 (mixture of isomers)
// pick larger Selectivity ratio from pair: a vs b Field: selected label. Fill in the label of the entry you choose.
a
(a: 13, b: 8.12)

[1] CC(C)S(=O)(=O)N1CCC[C@@H]1C(=O)NC(C=O)Cc1ccccc1 (mixture of isomers)
[2] COc1ccc(S(=O)(=O)N2CCC[C@@H]2C(=O)NC(C=O)Cc2ccccc2)cc1 (mixture of isomers)
Between 1 and 2 , whose recorded Selectivity ratio is greater? Please indicate the selected item by its label.
2
